biological target: T1, TAT194 polypeptide as used in the BIAcore analysis (human, UniProt P07949 29-635, limits assumed); test: standard BIAcore analysis
T1 construct: The construct used for the BIAcore analysis (extracellular domain, tag, fusion, isoform) is not described; also called RET
What pKd was measured for each of the following?
Please report pKd as the negative decimal logarithm of the molar concentration, giving only the number.

pKd for anti-TAT194 monoclonal antibody R4204 (antibody, V domains shown, Monoclonal antibody from a mouse hybridoma; kappa VL) VH: QVQLQQSGAELAKPGTSVKMSCKASGYTFTTYWMHWIKQRPGQGLEWIGYINPSTGYSEYNQKFKDKATLTADRSSSTAYMQLSSLTSEDSTVYYCARWRFYGSTYGMDYWGQGTSVTVSS VL: QIVLTQSPALMSAFPGEKVTLTCSASSSVTYMYWYQQKPRSSPKPWIYLTSKLASGVPSRFSGSGSGTSFSLTITSMEAEDAATYYCQQWTGNPLTFGAGTKLELKR is 6.77

pKd for anti-TAT194 monoclonal antibody R4207 (antibody, V domains shown, Monoclonal antibody from a mouse hybridoma; kappa VL) VH: DVQLQESGPGLVKPSQSLSLTCTVTGFSITSDYAWNWIRQFPGNKLEWMAYITYSGDTGYNPSLKSRISVTRDTSKNQFFLQLSSVTTEDTATYYCARGNYDWVFAYWGQGTLVTVSA VL: DVQITQSPSYLAASPGETITINCRASKSISKYLAWYQEKPGKTNKLLIYSGSTLQSGIPSRFSGSGSGTDFTLTISSLEPEDFAMYYCQQYIEYPWTFGGGTKLEIKR is 9.27

Data origin, for the record: patent US20150098946A1
